What one-hybrid fitness for binding NBS DNA was measured for each of the following?
B1: Caulobacter ParB omega fusion; a variant is named by its letters at X, in order, B8GW30 (parent)
chain: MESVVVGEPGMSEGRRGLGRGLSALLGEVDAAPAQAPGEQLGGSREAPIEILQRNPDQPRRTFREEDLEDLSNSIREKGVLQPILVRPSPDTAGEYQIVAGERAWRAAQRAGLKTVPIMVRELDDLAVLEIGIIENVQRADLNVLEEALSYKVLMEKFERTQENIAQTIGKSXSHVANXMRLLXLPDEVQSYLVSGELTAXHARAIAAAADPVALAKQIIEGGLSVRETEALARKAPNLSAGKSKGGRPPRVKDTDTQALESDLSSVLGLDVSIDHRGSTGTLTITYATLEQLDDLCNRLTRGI

- Variants of: B1
- experiment_notes: one-hybrid fitness for binding NBS DNA (the Noc-binding site; scaled: cognate 1, non-cognate 0); higher = stronger binding
- condition_notes: with NBS DNA site
The full ranking holds about 81,000 sequences; the median of “one-hybrid fitness for binding NBS DNA” is about -0.1, and the highest 2% start at about 0.36. The list comes from a sample in which the highest values are over-represented; it also holds close analogues and randomly drawn sequences.

See these solved cases before continuing.
variant_name: ELNV
one-hybrid fitness for binding NBS DNA: ≤ 0.2

variant_name: APGE
one-hybrid fitness for binding NBS DNA: ≤ 0.2

variant_name: LRPY
one-hybrid fitness for binding NBS DNA: ≤ 0.2

variant_name: LCHL
one-hybrid fitness for binding NBS DNA: ≤ 0.2

variant_name: RAAT
one-hybrid fitness for binding NBS DNA: 0.364

variant_name: RTKG
one-hybrid fitness for binding NBS DNA: 0.223

Give measured one-hybrid fitness for binding NBS DNA for every item shown.
1. KRFR
2. RTVR
3. PLNE
4. RFAT
5. SQER
6. RRCD
7. TMML
8. YQNG

1. 0.469
2. 0.416
3. ≤ 0.2
4. ≤ 0.2
5. ≤ 0.2
6. ≤ 0.2
7. ≤ 0.2
8. ≤ 0.2

Give measured one-hybrid fitness for binding NBS DNA for every item shown.
1. KPAR
2. TRMF
3. RHAH
4. QTWQ
5. WNEY

1. ≤ 0.2
2. ≤ 0.2
3. ≤ 0.2
4. ≤ 0.2
5. ≤ 0.2

The measurements presented in this section are drawn from a collection of fitness landscapes (doi:10.1016/j.celrep.2020.107928).
